- TESTED ON: CDK2/Cyclin E1 complex (Homo sapiens)
- METHOD NOTES: CDK2 inhibition assay (Caliper/LabChip EZ Reader kinase assay)
- Assay type: biochemical
- TEST CONTEXT: Table 1; CDK2/Cyclin E1 0.5 nM, ATP 2 mM, 35 min at 27° C.
- Experimental: Compounds of the invention were assayed for inhibition of CDK7, CDK9, CDK12, and CDK2 activity at Biortus Biosciences (Jiangyin, Jiangsu Province, P.R. of China) using kinase assays for each CDK developed with a Caliper/LabChip EZ Reader (Perkin Elmer, Waltham, MA). […]
QUANTITY NAME: IC50

| COMPOUND | TESTED ON | IC50 |
| --- | --- | --- |
| O[C@H]1CC[C@@H](c2cccc3c(-c4nc(N[C@H]5CCCNC5)ncc4C(F)(F)F)c[nH]c32)CC1 | CDK2/Cyclin E1 complex (Homo sapiens) | 0.2 to 5 µM |

Please give IC50 for each item listed below.
1. Ic1cnc(N[C@H]2CCCNC2)nc1-c1c[nH]c2ccccc12
2. CS(=O)(=O)c1c(C#N)ccc2c(-c3nc(N[C@H]4CCCNC4)ncc3Cl)c[nH]c12
3. CCCCCC1CC[C@H](Nc2ncc(C(F)(F)F)c(-c3c[nH]c4ccccc34)n2)CN1 (mixture of isomers)
4. CC(C)c1cnc(N[C@H]2CCCNC2)nc1-c1n[nH]c2nc(C#N)ccc12
5. CC1(O)CCN(C(=O)c2ccc3c(-c4nc(N[C@H]5CCCNC5)ncc4C(F)(F)F)c[nH]c3c2)C1 (single isomer, unassigned)
6. CC(C)(O)CCc1ccc2c(-c3nc(N[C@H]4CCCNC4)ncc3C(F)(F)F)c[nH]c2c1
7. CC1(C)CCNC[C@@H]1Nc1ncc(C(F)(F)F)c(-c2c[nH]c3ccccc23)n1 (single isomer, unassigned)

Result:
1. 0.02 to 0.2 µM
2. 0.2 to 5 µM
3. 0.2 to 5 µM
4. > 5 µM
5. > 5 µM
6. > 5 µM
7. > 5 µM

Please give IC50 for each item listed below.
1. Cn1cc(-c2nc(N[C@H]3CCCNC3)ncc2C(F)(F)F)c2cccc(S(C)(=O)=O)c21
2. FC(F)(F)c1cnc(N[C@H]2CCC3(CC3)NC2)nc1-c1c[nH]c2ccccc12
3. C[C@H]1CCNC[C@H]1Nc1ncc(C(F)(F)F)c(-c2c[nH]c3ccccc23)n1
4. CP(C)(=O)c1ccc2c(-c3nc(N[C@H]4CCCNC4)ncc3C(F)(F)F)c[nH]c2c1
5. CNC(=O)C1CNCC(Nc2ncc(C(F)(F)F)c(-c3c[nH]c4ccccc34)n2)C1 (single isomer, unassigned) [Compound 253]
6. FC(F)(F)c1cnc(N[C@H]2CCC3(CCCCC3)NC2)nc1-c1c[nH]c2ccccc12
7. O=C(c1ccc2c(-c3nc(N[C@H]4CCCNC4)ncc3C(F)(F)F)c[nH]c2c1)N1CC[C@@H](O)C1

Result:
1. > 5 µM
2. 0.2 to 5 µM
3. > 5 µM
4. > 5 µM
5. 0.02 to 0.2 µM
6. 0.2 to 5 µM
7. > 5 µM

* * *

- TESTED ON: CDK12 (aa686-1082)/Cyclin K complex (Homo sapiens)
- Construct: CDK12 (aa686-1082)/Cyclin K complex
- Sequence (Q9NYV4 686-1082, species assumed): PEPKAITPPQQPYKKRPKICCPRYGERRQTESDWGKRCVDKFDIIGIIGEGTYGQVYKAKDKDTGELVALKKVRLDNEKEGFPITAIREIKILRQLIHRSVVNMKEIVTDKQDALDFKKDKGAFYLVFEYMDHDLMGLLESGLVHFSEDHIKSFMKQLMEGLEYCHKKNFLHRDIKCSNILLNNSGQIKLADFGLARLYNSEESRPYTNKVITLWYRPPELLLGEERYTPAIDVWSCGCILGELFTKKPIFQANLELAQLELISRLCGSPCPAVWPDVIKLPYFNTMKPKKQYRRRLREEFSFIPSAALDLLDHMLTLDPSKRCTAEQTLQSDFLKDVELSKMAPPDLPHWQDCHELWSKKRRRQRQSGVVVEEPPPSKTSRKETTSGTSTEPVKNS
- Sequence (O75909 whole entry partner, species assumed, the tested form may be a part): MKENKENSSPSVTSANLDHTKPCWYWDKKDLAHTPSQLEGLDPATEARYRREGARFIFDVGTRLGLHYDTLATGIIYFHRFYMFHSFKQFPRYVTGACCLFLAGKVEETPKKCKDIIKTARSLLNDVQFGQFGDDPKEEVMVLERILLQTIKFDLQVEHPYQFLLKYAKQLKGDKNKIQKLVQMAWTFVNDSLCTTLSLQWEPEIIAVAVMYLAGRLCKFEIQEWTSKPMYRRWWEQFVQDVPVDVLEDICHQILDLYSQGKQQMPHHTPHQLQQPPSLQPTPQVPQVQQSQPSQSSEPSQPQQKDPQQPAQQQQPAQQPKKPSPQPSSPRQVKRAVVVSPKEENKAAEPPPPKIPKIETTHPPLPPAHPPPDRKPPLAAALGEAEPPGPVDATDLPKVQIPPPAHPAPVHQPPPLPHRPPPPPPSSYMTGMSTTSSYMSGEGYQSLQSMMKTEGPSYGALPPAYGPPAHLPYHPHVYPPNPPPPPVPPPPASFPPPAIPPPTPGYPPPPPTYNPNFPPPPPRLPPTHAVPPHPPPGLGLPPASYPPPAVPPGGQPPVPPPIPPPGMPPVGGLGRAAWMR
- METHOD NOTES: CDK12 inhibition assay (Caliper/LabChip EZ Reader kinase assay)
- Assay type: biochemical
- TEST CONTEXT: Table 1; CDK12 (aa686-1082)/Cyclin K 50 nM, ATP 2 mM, 3 hr at 27° C.
QUANTITY NAME: IC50

The following molecules have reported results that may help.
| MOLECULE | TESTED ON | IC50 |
| --- | --- | --- |
| FC(F)(F)c1cnc(N[C@H]2CCCNC2)nc1-c1c[nH]c2cc(-c3cccc4cnccc34)ccc12 | CDK12 (aa686-1082)/Cyclin K complex (Homo sapiens) | 200 to 5000 nM |
| NC(=O)c1cccc(-c2ccc3c(-c4nc(N[C@H]5CCCNC5)ncc4C(F)(F)F)c[nH]c3c2)c1 | CDK12 (aa686-1082)/Cyclin K complex (Homo sapiens) | 200 to 5000 nM |
| C=CC(=O)N1CCC(CO[C@H]2CNC[C@@H](Nc3ncc(C(F)(F)F)c(-c4c[nH]c5c(S(C)(=O)=O)cccc45)n3)C2)CC1 | CDK12 (aa686-1082)/Cyclin K complex (Homo sapiens) | 200 to 5000 nM |
| CCc1cnc(-c2c[nH]c3ncc(F)cc23)nc1N[C@H]1CCCNC1 | CDK12 (aa686-1082)/Cyclin K complex (Homo sapiens) | > 5000 nM |
| FC(F)(F)c1cnc(N[C@H]2CCCNC2)nc1-c1c[nH]c2cc(-c3cnccn3)ccc12 | CDK12 (aa686-1082)/Cyclin K complex (Homo sapiens) | 200 to 5000 nM |
| C[C@H]1CNC[C@@H](Nc2ncc(Cl)c(-c3c[nH]c4ccccc34)n2)C1 | CDK12 (aa686-1082)/Cyclin K complex (Homo sapiens) | 20 to 200 nM |
| COC(C)c1cnc(N[C@H]2CCCNC2)nc1-c1c[nH]c2ccccc12 (stereo partly drawn) | CDK12 (aa686-1082)/Cyclin K complex (Homo sapiens) | > 5000 nM |
| CC1(O)CCC(c2cccc3c(-c4nc(N[C@H]5CCCNC5)ncc4C(F)(F)F)c[nH]c23)CC1 (single isomer, unassigned) [Compound 193] | CDK12 (aa686-1082)/Cyclin K complex (Homo sapiens) | 200 to 5000 nM |
| CCS(=O)(=O)c1ccc2c(-c3nc(N[C@H]4CCCNC4)ncc3C(F)(F)F)c[nH]c2c1 | CDK12 (aa686-1082)/Cyclin K complex (Homo sapiens) | 200 to 5000 nM |
| CC[C@@H]1CC[C@H](Nc2ncc(C(F)(F)F)c(-c3c[nH]c4ccccc34)n2)CN1 | CDK12 (aa686-1082)/Cyclin K complex (Homo sapiens) | 200 to 5000 nM |

Please give IC50 for each item listed below.
1. CC(=O)NCc1cccc(-c2ccc3c(-c4nc(N[C@H]5CCCNC5)ncc4C(F)(F)F)c[nH]c3c2)c1
2. FC(F)(F)c1cnc(N[C@H]2CCC3(CCCCC3)NC2)nc1-c1c[nH]c2ccccc12

Result:
1. 200 to 5000 nM
2. 200 to 5000 nM

* * *

Exercise: state measured IC50 for each of the molecules provided.
- TESTED ON: CDK12 (aa686-1082)/Cyclin K complex (Homo sapiens)
- Construct: CDK12 (aa686-1082)/Cyclin K complex
- METHOD NOTES: CDK12 inhibition assay (Caliper/LabChip EZ Reader kinase assay)
- Assay type: biochemical
- TEST CONTEXT: Table 1; CDK12 (aa686-1082)/Cyclin K 50 nM, ATP 2 mM, 3 hr at 27° C.

| MOLECULE | IC50 |
| --- | --- |
| FC1(F)CNC[C@@H](Nc2ncc(C(F)(F)F)c(-c3c[nH]c4ccccc34)n2)C1 | 0.2 to 5 µM |
| CC(O)c1cnc(N[C@H]2CCCNC2)nc1-c1c[nH]c2ccccc12 (mixture of isomers) | > 5 µM |
| CCP(=O)(CC)c1ccc2c(-c3nc(N[C@H]4CCCNC4)ncc3C(F)(F)F)c[nH]c2c1 | > 5 µM |
| FC(F)(F)c1cnc(N[C@H]2CCCNC2)nc1-c1c[nH]c2c(-c3cn[nH]c3)cccc12 | 0.02 to 0.2 µM |
| CCc1cnc(N[C@H]2CCCNC2)nc1-c1c[nH]c2c(S(C)(=O)=O)cccc12 | 0.2 to 5 µM |
| N#C[C@H]1CCN(C(=O)c2ccc3c(-c4nc(N[C@H]5CCCNC5)ncc4C(F)(F)F)c[nH]c3c2)C1 | 0.2 to 5 µM |

Please give IC50 for each item listed below.
1. CCOc1ccccc1-c1ccc2c(-c3nc(NC4CCCNC4)ncc3C(F)(F)F)c[nH]c2c1 (stereo not drawn)
2. C=Cc1cnc(N[C@H]2CCCNC2)nc1-c1c[nH]c2ccccc12

Result:
["0.2 to 5 µM", "0.2 to 5 µM"]

Please give IC50 for each item listed below.
1. O=C(c1cccc(-c2ccc3c(-c4nc(N[C@H]5CCCNC5)ncc4C(F)(F)F)c[nH]c3c2)c1)N1CCCC1
2. CCc1cnc(N[C@H]2CCCNC2)nc1-c1c[nH]c2c(S(C)(=O)=O)c(C#N)ccc12

Result:
1. 0.2 to 5 µM
2. > 5 µM

Please give IC50 for each item listed below.
1. Cc1nc(-c2ccc3c(-c4nc(N[C@H]5CCCNC5)ncc4C(F)(F)F)c[nH]c3c2)n[nH]1
2. CC1(O)CCC(c2cccc3c(-c4nc(N[C@H]5CCCNC5)ncc4C(F)(F)F)c[nH]c23)CC1 (single isomer, unassigned) [Compound 192]
3. CC(C)(O)CCc1cccc2c(-c3nc(N[C@H]4CCCNC4)ncc3C(F)(F)F)c[nH]c12
4. Cc1nn(C)cc1-c1cccc2c(-c3nc(N[C@H]4CCCNC4)ncc3C(F)(F)F)c[nH]c12
5. CC(C)c1cnc(N[C@H]2CCCNC2)nc1-c1n[nH]c2nc(C#N)ccc12
6. C[C@]1(O)CCN(C(=O)c2ccc3c(-c4nc(N[C@H]5CCCNC5)ncc4C(F)(F)F)c[nH]c3c2)C1
7. C#Cc1cnc(N[C@H]2CCCNC2)nc1-c1c[nH]c2ccccc12

Result:
0.2 to 5 µM
0.2 to 5 µM
0.2 to 5 µM
0.2 to 5 µM
> 5 µM
0.2 to 5 µM
0.2 to 5 µM

Please give IC50 for each item listed below.
1. CP(C)(=O)c1ccc2c(-c3nc(N[C@H]4CCCNC4)ncc3C(F)(F)F)c[nH]c2c1
2. FC(F)(F)c1cnc(N[C@H]2CCCNC2)nc1-c1c[nH]c2cc(-c3cccnc3)ccc12
3. O=C1CCc2ccc(-c3ccc4c(-c5nc(N[C@H]6CCCNC6)ncc5C(F)(F)F)c[nH]c4c3)cc2N1
4. Nc1nc2c(-c3ccc4c(-c5nc(N[C@H]6CCCNC6)ncc5C(F)(F)F)c[nH]c4c3)cccc2s1

Result:
1: 0.2 to 5 µM; 2: 0.2 to 5 µM; 3: 0.2 to 5 µM; 4: 0.2 to 5 µM
